Sourced from patent US8357671B2

This document collects IC50 values reported for mouse CD22 (Mus musculus).
Answer in µM, number only, no unit symbol.

CC(=O)NC1C(O)OC(CO)C(OC2OC(COC3(C(=O)O)CC(O)C(NC(=O)CO)C(C(O)C(O)CO)O3)C(O)C(O)C2O)C1O (stereo not shown)	221

Ask: Please give the measured IC50 for this compound: CC(=O)NC1C(O)CC(O)(C(=O)O)OC1C(O)C(O)CNC(=O)c1ccc(-c2ccccc2)cc1 (stereo not shown)
Reply: 1500

###

This document collects pIC50 values reported for human CD22 (Homo sapiens, UniProt P20273).
Bear in mind: pIC50 is minus log10 of a mol/L concentration; give just that figure.

CC(=O)NC1C(O)OC(CO)C(OC2OC(COC3(C(=O)O)CC(O)C(NC(=O)CO)C(C(O)C(O)CO)O3)C(O)C(O)C2O)C1O (stereo not drawn) [NeuGc-LN, NeuGcα2,6Galβ1-4GlcNAc]	3.59

Could you now look at the following molecule, please?
Ask: Please give the measured pIC50 for this molecule: CC(=O)NC1C(O)CC(O)(C(=O)O)OC1C(O)C(O)CNC(=O)c1ccc(-c2ccccc2)cc1 (stereo not drawn) [BPC-NeuAc]
Reply: 4.46
